Activity values by entry
- test.target: Human immunodeficiency virus type 1 integrase (Human immunodeficiency virus 1) (UniProt Q7ZJM1)
- Sequence (Q7ZJM1 as listed by the source): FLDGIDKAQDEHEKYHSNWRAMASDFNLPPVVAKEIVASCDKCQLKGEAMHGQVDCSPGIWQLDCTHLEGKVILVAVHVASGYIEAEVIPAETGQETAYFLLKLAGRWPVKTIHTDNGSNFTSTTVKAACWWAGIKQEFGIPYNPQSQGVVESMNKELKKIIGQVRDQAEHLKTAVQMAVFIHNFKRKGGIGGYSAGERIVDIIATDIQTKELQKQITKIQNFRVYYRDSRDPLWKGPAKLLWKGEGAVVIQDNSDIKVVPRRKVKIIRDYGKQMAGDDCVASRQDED
- test: Binding affinity to HIV-1 Integrase by FRET assay
Numbered stars: 1 amine (or outer) side, 2 acyl side, 3 side chain; on linkers, the order of the positions; unused ones are H or OH. Bridge positions count the residues as written; N and C are the ends. Square brackets hold non-standard residues; d marks the D form. Peptide text beside a SMILES is read from it. X2 = O=C(c1ccccc1-c1c2ccc(=O)cc-2oc2cc(O)ccc12)N(CCC(=O)[*:1])C(=O)[*:2]; X1 = O=C(c1ccccc1-c1c2ccc(=O)cc-2oc2cc(O)ccc12)N(CC(=O)[*:1])C(=O)[*:2]; NGly(3-aminopropyl) = O=C(CN(CCCN[*:3])[*:1])[*:2]; N(2-Aminoethyl)Gly = O=C(CN(CCN[*:3])[*:1])[*:2]; Nlys = NCCCCNCC(=O)O
observed.property: Activity (µM)

INSERT INTO results (molecule, observed_property, unit, readout_number) VALUES
  ('CC[C@H](C)[C@@H]1NC(=O)[C@H](CCCCN)NC(=O)[C@H](CC(C)C)NC(=O)[C@H](CO)NC(=O)[C@H](CC(N)=O)NC(=O)[C@H](Cc2c[nH]c3ccccc23)NC(=O)CN(C(=O)c2ccccc2-c2c3ccc(=O)cc-3oc3cc(O)ccc23)C(=O)NCCCN(CC(N)=O)C(=O)[C@H](C(C)C)NC(=O)[C@H](CC(=O)O)NC(=O)[C@H](CC(C)C)NC(=O)[C@H](CC(N)=O)NC(=O)[C@H](CC(=O)O)NC1=O (WNSLKIDNLDV[NGly(3-aminopropyl)]-NH2; linker N-12 via X1)', 'Activity', 'µM', 6.5),
  ('CC[C@H](C)[C@@H]1NC(=O)[C@H](CCCCN)NC(=O)[C@H](CC(C)C)NC(=O)[C@H](CO)NC(=O)[C@H](CC(N)=O)NC(=O)[C@H](Cc2c[nH]c3ccccc23)NC(=O)CCN(C(=O)c2ccccc2-c2c3ccc(=O)cc-3oc3cc(O)ccc23)C(=O)NCCN(CC(N)=O)C(=O)[C@H](C(C)C)NC(=O)[C@H](CC(=O)O)NC(=O)[C@H](CC(C)C)NC(=O)[C@H](CC(N)=O)NC(=O)[C@H](CC(=O)O)NC1=O (WNSLKIDNLDV[N(2-Aminoethyl)Gly]-NH2; linker N-12 via X2)', 'Activity', 'µM', 6.3),
  ('CC[C@H](C)[C@@H]1NC(=O)[C@H](CCCCN)NC(=O)[C@H](CC(C)C)NC(=O)[C@H](CO)NC(=O)[C@H](CC(N)=O)NC(=O)[C@H](Cc2c[nH]c3ccccc23)NC(=O)CCN(C(=O)c2ccccc2-c2c3ccc(=O)cc-3oc3cc(O)ccc23)C(=O)NCCCCN(CC(N)=O)C(=O)[C@H](C(C)C)NC(=O)[C@H](CC(=O)O)NC(=O)[C@H](CC(C)C)NC(=O)[C@H](CC(N)=O)NC(=O)[C@H](CC(=O)O)NC1=O (WNSLKIDNLDV[Nlys]-NH2; linker N-12 via X2)', 'Activity', 'µM', 3.1),
  ('CC[C@H](C)[C@@H]1NC(=O)[C@H](CCCCN)NC(=O)[C@H](CC(C)C)NC(=O)[C@H](CO)NC(=O)[C@H](CC(N)=O)NC(=O)[C@H](Cc2c[nH]c3ccccc23)NC(=O)CCN(C(=O)c2ccccc2-c2c3ccc(=O)cc-3oc3cc(O)ccc23)C(=O)NCCCN(CC(N)=O)C(=O)[C@H](C(C)C)NC(=O)[C@H](CC(=O)O)NC(=O)[C@H](CC(C)C)NC(=O)[C@H](CC(N)=O)NC(=O)[C@H](CC(=O)O)NC1=O (WNSLKIDNLDV[NGly(3-aminopropyl)]-NH2; linker N-12 via X2)', 'Activity', 'µM', 4);
